These measurements were taken from patent US7985715B2.

- TARGET OR SYSTEM: fluorescently labeled Anti-FLAG® M2 monoclonal antibody (Sigma)
- TEST PROTOCOL: fluorescence microarray: peptides immobilized on epoxide slide, probed with fluorescently labeled antibody
Ends that are not written are not given here.
MEASURED PROPERTY: Mean Fluorescence Units (fluorescence units)
When you answer, write just the number.

Study these solved cases before continuing.
KAGAGMGY-NHMe (not fully specified (N-terminus)) [artificial receptor No. 7 (n=1): peptide building block MY]
64600
artificial receptor No. 133 (n=4): peptide building blocks RM RY QH MY (designed binder, not fully specified (N-terminus)) peptide 1: KAGAGRGM-NHMe peptide 2: Ac-KAGAGRGY-NHMe peptide 3: Ac-KAGAGQGH-NHMe peptide 4: Ac-KAGAGMGY-NHMe
47600
artificial receptor No. 65 (n=3): peptide building blocks RM QY MY (designed binder, not fully specified (N-terminus)) peptide 1: KAGAGRGM-NHMe peptide 2: Ac-KAGAGQGY-NHMe peptide 3: Ac-KAGAGMGY-NHMe
40900
artificial receptor No. 69 (n=3): peptide building blocks RM HM TY (designed binder, not fully specified (N-terminus)) peptide 1: KAGAGRGM-NHMe peptide 2: Ac-KAGAGHGM-NHMe peptide 3: Ac-KAGAGTGY-NHMe
39800

Prompt: Input artificial receptor No. 93 (n=3): peptide building blocks RY MY DD (designed binder) peptide 1: Ac-KAGAGRGY-NHMe peptide 2: Ac-KAGAGMGY-NHMe peptide 3: Ac-KAGAGDGD-NHMe , output reported Mean Fluorescence Units (fluorescence units).
Completion: 46700
